Target: human ether-à-go-go-related gene (hERG) potassium channel (human);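 further: peak tail current of the secondary pulse compared with the same well before compound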
Experiment: primary screen, population patch clamp on CHO cells stably expressing hERG; higher = less effect of the substance
The whole screen tested about 310,000 compounds, of which about 14,000 (4.5%) showed an effect of 50% or more. Effects have a minus sign here. The list comes from a sample in which strong results are over-represented; it also holds close analogues and randomly drawn compounds.
The following compounds are shown together with reported hERG current change (%, negative = inhibition) at 10uM values.
test_readout: hERG current change (%, negative = inhibition) at 10uM (%)

chemical_structure=C=CCn1c(SCc2cccc(F)c2)nc2cc(C(=O)N3CCC(C(N)=O)CC3)ccc2c1=O meas_value=-34.7
chemical_structure=O=C(COC(=O)COc1cccc(C(F)(F)F)c1)NC(=O)NC1CCCCC1 meas_value=-1.9
chemical_structure=CCOC(=O)c1cn2nc(N3CCCC3)ccc2n1 meas_value=1.32
chemical_structure=Cc1[nH]c(-c2ccc(F)cc2)cc1C(=O)N1CCN(c2ccccc2F)CC1 meas_value=-70.3
chemical_structure=COc1ccc(/C(C)=N/Nc2ccc(F)cc2F)c(O)c1 meas_value=6.58

---

Target: human ether-à-go-go-related gene (hERG) potassium channel (human, UniProt Q12809);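 further: peak tail current of the secondary pulse compared with the same well before compound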
Sequence (Q12809 whole entry, looked up): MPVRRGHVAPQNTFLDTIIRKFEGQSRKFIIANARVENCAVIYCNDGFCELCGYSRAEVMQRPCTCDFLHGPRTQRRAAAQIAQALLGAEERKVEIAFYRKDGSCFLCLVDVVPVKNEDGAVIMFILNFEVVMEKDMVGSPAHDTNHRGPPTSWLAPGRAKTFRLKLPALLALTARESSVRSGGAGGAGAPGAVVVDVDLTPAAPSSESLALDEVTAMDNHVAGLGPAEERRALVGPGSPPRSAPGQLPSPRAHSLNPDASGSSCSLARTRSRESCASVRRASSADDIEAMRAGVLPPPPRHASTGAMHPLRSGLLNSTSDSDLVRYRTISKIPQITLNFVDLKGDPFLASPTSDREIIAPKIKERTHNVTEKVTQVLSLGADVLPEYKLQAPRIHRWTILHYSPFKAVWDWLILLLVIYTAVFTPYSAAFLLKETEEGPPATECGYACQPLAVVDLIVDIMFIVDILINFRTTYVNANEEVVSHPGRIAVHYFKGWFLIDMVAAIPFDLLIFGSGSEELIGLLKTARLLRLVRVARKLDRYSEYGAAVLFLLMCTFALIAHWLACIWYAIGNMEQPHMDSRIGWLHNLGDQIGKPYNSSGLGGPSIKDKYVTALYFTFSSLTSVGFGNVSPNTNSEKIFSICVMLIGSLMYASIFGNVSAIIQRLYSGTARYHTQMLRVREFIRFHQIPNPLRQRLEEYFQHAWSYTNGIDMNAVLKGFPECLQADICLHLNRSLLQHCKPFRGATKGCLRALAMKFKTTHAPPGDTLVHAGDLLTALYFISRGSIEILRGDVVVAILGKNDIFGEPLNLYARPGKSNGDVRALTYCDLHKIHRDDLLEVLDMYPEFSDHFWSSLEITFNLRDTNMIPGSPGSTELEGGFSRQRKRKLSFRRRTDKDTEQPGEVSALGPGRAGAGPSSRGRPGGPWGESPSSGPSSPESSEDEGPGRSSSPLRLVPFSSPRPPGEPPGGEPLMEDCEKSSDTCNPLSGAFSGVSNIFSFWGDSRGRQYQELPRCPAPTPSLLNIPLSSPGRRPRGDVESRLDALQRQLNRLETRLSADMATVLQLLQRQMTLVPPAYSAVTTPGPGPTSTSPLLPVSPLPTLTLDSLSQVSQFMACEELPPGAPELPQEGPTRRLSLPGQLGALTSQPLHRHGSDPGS
Assay: primary screen, population patch clamp on CHO cells stably expressing hERG; higher = less effect of the substance
Among all 310,000 compounds or so, about 14,000 (4.5%) showed an effect of 50% or more. The effect is printed as a negative number. Only a selection was taken, and strong results are over-represented in it overall.
test_readout: hERG current change (%, negative = inhibition) at 10uM (%)

compound=N=c1c2c3c(sc2nc2n1CCCCC2)CCCC3 meas_value=-45.2
compound=Cc1cc([N+](=O)[O-])nn1CC(=O)Nc1ccc(F)cc1 meas_value=6.31
compound="c1coc(C2Nc3ccccc3C3OCCC23)c1 (stereo not drawn)" meas_value=6.63
compound=Cc1cc(C(=O)N2CCC(C)CC2)on1 meas_value=1.18
compound=O=C(O)C(=O)O.O=[N+]([O-])c1cccc(OCCCN2CCC(Cc3ccccc3)CC2)c1 meas_value=-78.1
compound=N=c1c2c3c(sc2nc2n1CCCCC2)CCCCC3 meas_value=-53

---

Target: human ether-à-go-go-related gene (hERG) potassium channel (human, UniProt Q12809);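 further: peak tail current of the secondary pulse compared with the same well before compound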
Assay: primary screen, population patch clamp on CHO cells stably expressing hERG; higher = less effect of the substance
The whole screen tested about 310,000 compounds, of which about 14,000 (4.5%) showed an effect of 50% or more. Effects have a minus sign here. Only a selection was taken, and strong results are over-represented in it overall.
The following compounds are shown together with reported hERG current change (%, negative = inhibition) at 10uM values.
test_readout: hERG current change (%, negative = inhibition) at 10uM (%)

chemical_structure=CCOC(=O)N1CCC(NC(=O)c2ccc(CS(=O)(=O)c3ccc(OC)cc3)o2)CC1 tested_system="human ether-à-go-go-related gene (hERG) potassium channel (human, UniProt Q12809)" meas_value=-33.4
chemical_structure=Cc1nc2ccccc2c(N)c1C(=O)/C=C/c1ccccc1 tested_system="human ether-à-go-go-related gene (hERG) potassium channel (human, UniProt Q12809)" meas_value=-79.7
chemical_structure=O=C1NC(=NCc2ccccc2)S/C1=C\c1ccccc1 tested_system="human ether-à-go-go-related gene (hERG) potassium channel (human, UniProt Q12809)" meas_value=23.8
chemical_structure=Cc1cc(NC(=O)COc2ccccc2C)ccc1NC(=O)c1cccs1 tested_system="human ether-à-go-go-related gene (hERG) potassium channel (human, UniProt Q12809)" meas_value=0.541
chemical_structure=COc1ccccc1N1CCN(C(=O)c2nn(C)c3c2CS(=O)(=O)c2ccccc2-3)CC1 tested_system="human ether-à-go-go-related gene (hERG) potassium channel (human, UniProt Q12809)" meas_value=2.07
chemical_structure=CCOc1ccccc1NC(=O)CCC(=O)Nc1ccc2nc(N3CCN(C)CC3)cc(C)c2c1 tested_system="human ether-à-go-go-related gene (hERG) potassium channel (human, UniProt Q12809)" meas_value=3.51
chemical_structure=Cc1ccc(S(=O)(=O)NNC(=O)c2ccc3ccccc3n2)cc1 tested_system="human ether-à-go-go-related gene (hERG) potassium channel (human, UniProt Q12809)" meas_value=3.47
chemical_structure=Cn1nc(C(=O)N2CCN(c3ccc(Cl)cc3)CC2)c2c1-c1ccccc1S(=O)(=O)C2 tested_system="human ether-à-go-go-related gene (hERG) potassium channel (human, UniProt Q12809)" meas_value=-51.2
chemical_structure=N#CCCN(C(=O)COC(=O)CNC(=O)C12CC3CC(CC(C3)C1)C2)c1ccccc1 tested_system="human ether-à-go-go-related gene (hERG) potassium channel (human, UniProt Q12809)" meas_value=-23.5
chemical_structure=Cc1n[nH]c(=O)n1-c1ccc(C(C)C)cc1 tested_system="human ether-à-go-go-related gene (hERG) potassium channel (human, UniProt Q12809)" meas_value=18.4
